Origin of measurements: PubChem BioAssay (Tox21)

# Experiment notes: qHTS RealTime-Glo MT Cell Viability Assay in HepG2 cells - 40 hour (AID 1224870); note: nearly all actives have a fitted effect of over 50% in size
# Measurement context: RealTime-Glo luminescence; series mostly up to 76.8 µM
Results filed as inconclusive are left out. Calls of active or inactive are those of the source. Calls come from the whole dose curve; as a rule, active = well fitted cell-killing curve with a large enough effect in the repeat runs; inconclusive = weak or mixed curves, or effect the other way; inactive = flat fitted curve, though single readings scatter.
Field 'call' accepts class 1 = active, class 0 = inactive

For "[O-][Cl+3]([O-])([O-])O" , which call appears in the assay record?
class 0

For "BrCC(Br)(Br)Br" , which call appears in the assay record?
class 0

For "Oc1cccc(Cl)c1Cl" , which call appears in the assay record?
class 0

For CCC(OC(C)=O)C(CC(C)NC)(c1ccccc1)c1ccccc1 (stereo not drawn) , which call appears in the assay record?
class 1

For "ClSC(Cl)(Cl)Cl" , which call appears in the assay record?
class 0

For "COC(=O)/C=C(\C)OP(=O)(OC)OC" , which call appears in the assay record?
class 0

For "Cc1ccc([N+](=O)[O-])[c]2c1[O][Hg]2" , which call appears in the assay record?
class 1

For "COc1nc(C)nc(NC(=O)NS(=O)(=O)c2ccccc2Cl)n1" , which call appears in the assay record?
class 0

For "C=C(C)C(=O)[O][Sn]([CH2]CCC)([CH2]CCC)[CH2]CCC" , which call appears in the assay record?
class 1

For "Cc1ccc(C)c2ccccc12" , which call appears in the assay record?
class 0

For "Cc1ccc2cc3c(ccc4ccccc43)c3c2c1CC3" , which call appears in the assay record?
class 0

For "O=C(CCCCl)c1ccc(F)cc1" , which call appears in the assay record?
class 0

For "CC(=O)[O-].CC(=O)[O-].CC(=O)[O-].[Cr+3]" , which call appears in the assay record?
class 0

For "Cc1c([N+](=O)[O-])cc2c(c1[N+](=O)[O-])C(C)(C)CC2(C)C" , which call appears in the assay record?
class 0

For "Brc1cccc(-c2ccccc2)c1" , which call appears in the assay record?
class 0

For "COP(=S)(OC)Oc1nc(Cl)c(Cl)cc1Cl" , which call appears in the assay record?
class 0

For "CC(C)(C)c1ccc(OP(=O)(Oc2ccccc2)Oc2ccccc2)cc1" , which call appears in the assay record?
class 0

For "CCCCN(CCCC)C(=S)S" , which call appears in the assay record?
class 0

For CC(Cc1ccc(O)cc1)NCC(O)c1cc(O)cc(O)c1 (stereo not drawn) , which call appears in the assay record?
class 0

For CC(C)c1c(CN(C)C(C)Cc2ccccc2)n(C)n(-c2ccccc2)c1=O (stereo not drawn) , which call appears in the assay record?
class 0

For "CC(C)Br" , which call appears in the assay record?
class 0

For "CCOP(=S)(OCC)Oc1cc(C)nc(N(CC)CC)n1" , which call appears in the assay record?
class 0

For CCC(C)Nc1c([N+](=O)[O-])cc(C(C)(C)C)cc1[N+](=O)[O-] (stereo not drawn) , which call appears in the assay record?
class 0

For "CCC[CH2][Sn]([CH2]CCC)([CH2]CCC)[O][Sn]([CH2]CCC)([CH2]CCC)[CH2]CCC" , which call appears in the assay record?
class 1

For CCNc1nc(NC(C)C(C)C)nc(SC)n1 (stereo not drawn) , which call appears in the assay record?
class 0

For "C#CC1(O)CCCCC1" , which call appears in the assay record?
class 0

For "c1ccc(N=NNc2ccccc2)cc1" , which call appears in the assay record?
class 0

For "N#Cc1c[nH]cc1-c1cccc2c1OC(F)(F)O2" , which call appears in the assay record?
class 0

For "O=NN(CCO)CCO" , which call appears in the assay record?
class 0

For CC(Cl)CCl (stereo not drawn) , which call appears in the assay record?
class 0

For "CCCCn1cc[n+](C)c1.[Cl][Fe-]([Cl])([Cl])[Cl]" , which call appears in the assay record?
class 0

For COP(=S)(NC(C)C)Oc1ccc(C)cc1[N+](=O)[O-] (stereo not drawn) , which call appears in the assay record?
class 0

For "CN(C)CCc1c[nH]c2ccccc12" , which call appears in the assay record?
class 0

For NC1CCC(CC2CCC(N)CC2)CC1 (stereo not drawn) , which call appears in the assay record?
class 0

For "[Cl][Hg][c]1ccccc1" , which call appears in the assay record?
class 1

For "CC#C[C@]1(O)CC[C@H]2[C@@H]3C[C@H](C)C4=CC(=O)CC[C@]4(C)[C@H]3CC[C@@]21C" , which call appears in the assay record?
class 0

For "CC1CCCC1" , which call appears in the assay record?
class 0

For "O=[N+]([O-])c1ccccc1-c1ccccc1" , which call appears in the assay record?
class 0

For "CNC(=O)/C=C(\C)OP(=O)(OC)OC" , which call appears in the assay record?
class 0

For CC(C)[C@@H](Nc1ccc(C(F)(F)F)cc1Cl)C(=O)OC(C#N)c1cccc(Oc2ccccc2)c1 (stereo partly drawn) , which call appears in the assay record?
class 0

For CCC(C)c1cccc(C(C)CC)c1O (stereo not drawn) , which call appears in the assay record?
class 0

For "Nc1ccc(N=Nc2ccccc2)cc1" , which call appears in the assay record?
class 0

For "CSC(=O)c1c(C(F)F)nc(C(F)(F)F)c(C(=O)SC)c1CC(C)C" , which call appears in the assay record?
class 0

For "C[C@]12C/C(=C/O)C(=O)C[C@@H]1CC[C@@H]1[C@@H]2CC[C@@]2(C)[C@H]1CC[C@]2(C)O" , which call appears in the assay record?
class 0

For "[Cl-].[Cl-].[Sn+2]" , which call appears in the assay record?
class 0

For "C=CCOC(=O)c1ccccc1N" , which call appears in the assay record?
class 0

For "CN1C(=O)[C@@H](NC(=O)c2cc3ccccc3[nH]2)N=C(c2ccccc2)c2ccccc21" , which call appears in the assay record?
class 0

For "Cc1c([N+](=O)[O-])c(C)c([N+](=O)[O-])c(C(C)(C)C)c1[N+](=O)[O-]" , which call appears in the assay record?
class 0

For "CN=C=O" , which call appears in the assay record?
class 0

For "COc1ccc2c(c1OC)C(=O)O[C@@H]2[C@H]1c2cc3c(cc2CCN1C)OCO3" , which call appears in the assay record?
class 0

For "Nc1ccc(Cl)cc1C(=O)c1ccccc1F" , which call appears in the assay record?
class 0

For "O=[N+]([O-])[O-].[Tl+]" , which call appears in the assay record?
class 0

For "Cc1cc2c3c(c1)C(c1ccccc1)=N[C@@H](NC(=O)c1ccncc1)C(=O)N3CC2" , which call appears in the assay record?
class 0

====

# Experiment notes: qHTS assay to identify small molecule agonists of the AP-1 signaling pathway - cell viability counter screen (AID 1159525); note: nearly all actives have a fitted effect of over 55% in size
# Measurement context: ME-180 (cervical carcinoma) AP-1-bla cells viability, ATP luminescence, 5 h; series mostly up to 76.8 µM
# Procedure: National Center for Advancing Translational Sciences [NCATS] NIH Chemical Genomics Center [NCGC] U.S. Environmental Protection Agency [EPA] National Institutes of Environmental Health Sciences [NIEHS] National Toxicology Program [NTP] […] After the plates were read for Beta-Lactamase assay on Envision; 3 ul Cell Titer Glo (Promega) was added to measure the cytotoxicity and the plates were then incubated at RT in dark for 30 min. […] ViewLux data was expressed as relative luminescence units. […]
Results filed as inconclusive are left out. Calls of active or inactive are those of the source. Calls follow the shape of the full dose curve.
Field 'call' accepts Y (active), N (inactive)

For "COP(=S)(OC)Oc1nc(Cl)c(Cl)cc1Cl" , which call appears in the assay record?
N

For "CN(C)CCc1c[nH]c2ccccc12" , which call appears in the assay record?
N

For CC(=O)C(Cl)C(=O)N(C)C (stereo not drawn) , which call appears in the assay record?
N

For "CNN" , which call appears in the assay record?
N

For CCC(C)Nc1c([N+](=O)[O-])cc(C(C)(C)C)cc1[N+](=O)[O-] (stereo not drawn) , which call appears in the assay record?
N

For "O=C(N[C@H]1N=C(c2ccccc2F)c2cccc3c2N(CC3)C1=O)c1cc2ccccc2[nH]1" , which call appears in the assay record?
N

For "CNC(C)(C)Cc1ccccc1" , which call appears in the assay record?
N

For "N#Cc1sc2c(=O)c3ccccc3c(=O)c=2sc1C#N" , which call appears in the assay record?
Y

For CCCCC(CC)COC(=O)OOC(C)(C)C (stereo not drawn) , which call appears in the assay record?
N

For "Clc1ccc(C2(Cn3cncn3)OCCO2)c(Cl)c1" , which call appears in the assay record?
N

For "CSC1=N[C@@](C)(c2ccccc2)C(=O)N1Nc1ccccc1" , which call appears in the assay record?
N

For "C=CC(=O)[O][Sn]([CH2]CCC)([CH2]CCC)[CH2]CCC" , which call appears in the assay record?
Y

For CC(O)C(=O)[O][Hg][c]1ccccc1 (stereo not drawn) , which call appears in the assay record?
Y
